Taken from patent US11560372B2.

- MEASUREMENT_TARGET: MDR1 (Homo sapiens)
- Construct: expressed in transfected cells
- ASSAY_PROTOCOL: MDR1 membrane permeability test
- Type: in vitro ADME
- PARTICULARS: pH 7.4, efflux ratio (ER), Papp B to A / A to B, human MDR1-expressing LLC-PK1 cells, read-out: MDR1 substrate screening 1 μM (MDRSUB1)/Ratio (NUMBER)
// reported efflux ratio at 1 hr, 1 μM for each item listed
Please give the numeric answer without any surrounding text.

Ask | Find the recorded efflux ratio at 1 hr, 1 μM belonging to "Cc1c(Cc2ccc(C(=O)NC(C)(C)CO)cc2)cc2c(=O)n([C@H]3CCOC[C@@H]3O)cnc2c1C" and report it.
Reply | 24

Ask | Then "Cc1c(Cc2ccc(-c3cn(C)nn3)nc2)cc2c(=O)n([C@H]3CCOC[C@@H]3O)cnc2c1Cl" ?
Reply | 22

Ask | What about this compound? Cc1c(Cc2ccc(-n3cccn3)cc2)cc2c(=O)n([C@H]3CCOC[C@@H]3O)nnc2c1C [Comparative Example 2, reference compound]
Reply | 1.3

Ask | Consider next the compound "Cc1c(Cc2ccc(-c3cnn(C)c3)nc2)cc2c(=O)n([C@H]3CCOC[C@@H]3O)cnc2c1C" in the same way.
Reply | 11

Ask | "Cc1c(Cc2ccc(-c3cnn(C(C)(C)C)c3)nc2)cc2c(=O)n([C@H]3CCOC[C@@H]3O)cnc2c1C" ?
Reply | 2.9

Ask | Field entry: "CNC(=O)c1ccc(Cc2cc3c(=O)n([C@H]4CCOC[C@@H]4O)nnc3c(C)c2C)cn1"
Reply | 5.9

Ask | Another compound to check: "CNC(=O)c1ccc(Cc2cc3c(=O)n([C@H]4CCOC[C@@H]4O)cnc3cc2OC)cc1F"
Reply | 16

Ask | Then this compound: "Cc1c(Cc2ccc(C(=O)NC3CC3)c(F)c2)cc2c(=O)n([C@H]3CCOC[C@@H]3O)cnc2c1C"
Reply | 8.7

More entries:
Ask | Tell me the measured efflux ratio at 1 hr, 1 μM of Cc1c(Cc2ccc(C(=O)NC3CCOC3)cc2)cc2c(=O)n([C@H]3CCOC[C@@H]3O)cnc2c1C (some centres unmarked) , please.
Reply | 20

Ask | Query "CCNC(=O)c1ccc(Cc2cc3c(=O)n([C@H]4CCOC[C@@H]4O)cnc3c(C)c2C)cc1" next
Reply | 11

Ask | Same again, this time with "COc1cc2ncn([C@H]3CCOC[C@@H]3O)c(=O)c2cc1Cc1ccc(-c2ccn(C)n2)nc1"
Reply | 35

Ask | Do the same for "Cc1c(Cc2ccc(C(=O)NCC3COC3)c(F)c2)cc2c(=O)n([C@H]3CCOC[C@@H]3O)cnc2c1C" please
Reply | 26

Ask | Follow-up item: "COCCCNC(=O)c1ccc(Cc2cc3c(=O)n([C@H]4CCOC[C@@H]4O)cnc3c(C)c2C)cc1F"
Reply | 7.8

Ask | Try the compound "COC1CN(C(=O)c2ccc(Cc3cc4c(=O)n([C@H]5CCOC[C@@H]5O)cnc4c(C)c3C)cc2)C1"
Reply | 13

Ask | Try "Cc1c(Cc2ccc(-c3cn(C)nn3)nc2)cc2c(=O)n([C@H]3CCOC[C@@H]3O)cnc2c1C" next.
Reply | 18

Ask | Then what about the compound "Cc1c(Cc2ccc(C(=O)NC3CC(F)(F)C3)cc2)cc2c(=O)n([C@H]3CCOC[C@@H]3O)cnc2c1C" ?
Reply | 16

Ask | Query "Cc1c(Cc2ccc(C(=O)NC(C)C)cc2)cc2c(=O)n([C@H]3CCOC[C@@H]3O)cnc2c1C" next
Reply | 11

---

- MEASUREMENT_TARGET: MDR1 (Homo sapiens, UniProt P08183)
- Construct: expressed in transfected cells
- Sequence (P08183 whole entry): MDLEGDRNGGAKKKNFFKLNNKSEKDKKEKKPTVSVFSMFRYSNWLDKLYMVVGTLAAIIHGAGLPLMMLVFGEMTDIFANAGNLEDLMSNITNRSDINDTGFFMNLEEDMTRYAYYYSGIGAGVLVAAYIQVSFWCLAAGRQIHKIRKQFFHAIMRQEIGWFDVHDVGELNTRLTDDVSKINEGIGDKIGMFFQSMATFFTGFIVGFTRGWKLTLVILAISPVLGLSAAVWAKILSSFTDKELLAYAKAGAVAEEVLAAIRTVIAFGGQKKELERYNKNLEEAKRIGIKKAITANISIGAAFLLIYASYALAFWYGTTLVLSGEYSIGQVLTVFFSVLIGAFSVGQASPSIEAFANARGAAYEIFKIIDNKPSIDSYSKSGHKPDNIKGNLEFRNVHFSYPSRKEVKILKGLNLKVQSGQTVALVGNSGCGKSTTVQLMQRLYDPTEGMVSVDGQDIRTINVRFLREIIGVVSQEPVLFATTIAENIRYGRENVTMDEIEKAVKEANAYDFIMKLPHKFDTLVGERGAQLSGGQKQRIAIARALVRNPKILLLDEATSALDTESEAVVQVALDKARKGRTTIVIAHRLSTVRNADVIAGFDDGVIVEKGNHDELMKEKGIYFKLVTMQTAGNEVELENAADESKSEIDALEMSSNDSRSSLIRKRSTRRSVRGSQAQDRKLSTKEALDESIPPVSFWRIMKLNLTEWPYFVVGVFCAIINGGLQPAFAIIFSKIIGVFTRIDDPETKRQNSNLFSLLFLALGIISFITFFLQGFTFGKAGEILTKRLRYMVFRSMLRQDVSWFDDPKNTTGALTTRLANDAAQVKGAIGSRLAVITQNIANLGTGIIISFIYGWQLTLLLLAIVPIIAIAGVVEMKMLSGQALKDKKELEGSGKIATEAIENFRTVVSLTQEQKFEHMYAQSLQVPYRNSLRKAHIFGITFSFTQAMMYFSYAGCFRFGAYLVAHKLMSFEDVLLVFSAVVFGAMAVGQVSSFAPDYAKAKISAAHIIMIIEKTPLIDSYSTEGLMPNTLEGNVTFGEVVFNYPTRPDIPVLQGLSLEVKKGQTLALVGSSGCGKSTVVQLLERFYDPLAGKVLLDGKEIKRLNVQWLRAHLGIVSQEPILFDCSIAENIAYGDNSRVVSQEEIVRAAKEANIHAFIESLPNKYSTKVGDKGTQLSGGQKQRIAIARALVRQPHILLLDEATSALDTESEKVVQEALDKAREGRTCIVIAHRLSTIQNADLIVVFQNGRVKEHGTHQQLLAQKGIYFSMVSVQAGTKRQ
- ASSAY_PROTOCOL: MDR1 membrane permeability test
- Type: in vitro ADME
- PARTICULARS: pH 7.4, efflux ratio (ER), Papp B to A / A to B, human MDR1-expressing LLC-PK1 cells, read-out: MDR1 substrate screening 1 μM (MDRSUB1)/Ratio (NUMBER)
# efflux ratio at 1 hr, 1 μM per entry
Lab note: write the figure by itself, no unit.

Ask | For the compound shown here, "Cc1c(Cc2ccc(C(=O)NCCN3CCCC3)c(F)c2)cc2c(=O)n([C@H]3CCOC[C@@H]3O)cnc2c1C" , give the reported efflux ratio at 1 hr, 1 μM.
Reply | 56

Ask | # iterate: "Cc1c(Cc2ccc(C(=O)NC3(C)COC3)c(F)c2)cc2c(=O)n([C@H]3CCOC[C@@H]3O)cnc2c1C"
Reply | 15

Others:
Ask | // query efflux ratio at 1 hr, 1 μM value for entry "CNC(=O)c1ccc(Cc2cc3c(=O)n([C@H]4CCOC[C@@H]4O)nnc3c(Cl)c2C)cc1F"
Reply | 4.6

Ask | Proceed to "Cc1c(Cc2ccc(C(=O)NCC3CC3)cc2)cc2c(=O)n([C@H]3CCOC[C@@H]3O)cnc2c1C"
Reply | 12

---

- ASSAY_PROTOCOL: Mouse PK test (cassette dosing)
- Format: in vivo
- PARTICULARS: male, ICR, plasma, mouse, mean residence time, intravenous 0.1 mg/kg
ENDPOINT_LABEL: MRT (h)
Give a bare numeral; the unit h is implied.

Please review the entries below; each comes with its answer.
Ask | // query MRT value for entry "Cc1nn(C)cc1-c1ccc(Cc2cc3c(=O)n([C@H]4CCOC[C@@H]4O)cnc3c(C)c2C)cn1"
Reply | 1.2

Ask | Also "CNC(=O)c1ccc(Cc2cc3c(=O)n([C@H]4CCOC[C@@H]4O)nnc3c(Cl)c2C)cc1F" ?
Reply | 2.5

Ask | Field entry: "Cc1c(Cc2ccc(-c3cn(C)nn3)nc2)cc2c(=O)n([C@H]3CCOC[C@@H]3O)cnc2c1C"
Reply | 1

Ask | Now give it for "Cc1c(Cc2ccc(-c3cnn(C)c3)nc2)cc2c(=O)n([C@H]3CCOC[C@@H]3O)cnc2c1C" too.
Reply | 1.4

Ask | # iterate: "CNC(=O)c1ccc(Cc2cc3c(=O)n([C@H]4CCOC[C@@H]4O)cnc3c(C)c2C)cc1F"
Reply | 1.9

Ask | Then "Cc1c(Cc2ccc(C(=O)NC[C@H]3CCCO3)c(F)c2)cc2c(=O)n([C@H]3CCOC[C@@H]3O)cnc2c1C" ?
Reply | 0.5

// below: MRT requested for another compound
Ask | Please look up its MRT: "COCCNC(=O)c1ccc(Cc2cc3c(=O)n([C@H]4CCOC[C@@H]4O)cnc3c(C)c2C)cc1F"
Reply | 0.8

---

Each entry below lists one item and its recorded efflux ratio at 1 hr, 1 μM value.
- MEASUREMENT_TARGET: MDR1 (Homo sapiens, UniProt P08183)
- Construct: expressed in transfected cells
- ASSAY_PROTOCOL: MDR1 membrane permeability test
- Type: in vitro ADME
- PARTICULARS: pH 7.4, efflux ratio (ER), Papp B to A / A to B, human MDR1-expressing LLC-PK1 cells, read-out: MDR1 substrate screening 1 μM (MDRSUB1)/Ratio (NUMBER)
Number, no unit, nothing else.

Ask | Test system MDR1 (Homo sapiens, UniProt P08183); read-out efflux ratio at 1 hr, 1 μM; what value for CNC(=O)c1ccc(Cc2cc3c(=O)n([C@H]4CCOC[C@@H]4O)cnc3c(C)c2C)cc1F [Example 3] ?
Reply | 6

Ask | Next compound up: Cc1c(Cc2ccc(C(=O)NCCF)c(F)c2)cc2c(=O)n([C@H]3CCOC[C@@H]3O)cnc2c1C [Example 67]
Reply | 5.3

Ask | Let us now turn to Cc1c(Cc2ccc(C(=O)NCCN3CCCC3=O)c(F)c2)cc2c(=O)n([C@H]3CCOC[C@@H]3O)cnc2c1C [Example 77]
Reply | 32

Continuing:
Ask | Form field - read-out: efflux ratio at 1 hr, 1 μM; system: MDR1 (Homo sapiens, UniProt P08183); submitted item: COCCNC(=O)c1ccc(Cc2cc3c(=O)n([C@H]4CCOC[C@@H]4O)cnc3c(C)c2C)cc1 [Example 49]
Reply | 20

Ask | Request: Cc1c(Cc2ccc(C(=O)N3CC(O)C3)cc2)cc2c(=O)n([C@H]3CCOC[C@@H]3O)cnc2c1C [Example 40]
Reply | 12

Ask | Further, for Cc1c(Cc2ccc(-c3cnn(C4CC4)c3)nc2)cc2c(=O)n([C@H]3CCOC[C@@H]3O)cnc2c1C [Example 56] ?
Reply | 4.9

Ask | // next record Cc1ccc(Cc2cc3c(=O)n([C@H]4CCOC[C@@H]4O)cnc3c(Cl)c2C)cn1 [Example 16]
Reply | 6.8

---

- MEASUREMENT_TARGET: MDR1 (Homo sapiens)
- Construct: expressed in transfected cells
- ASSAY_PROTOCOL: MDR1 membrane permeability test
- Format: in vitro ADME
- PARTICULARS: pH 7.4, efflux ratio (ER), Papp B to A / A to B, human MDR1-expressing LLC-PK1 cells, read-out: MDR1 substrate screening 1 μM (MDRSUB1)/Ratio (NUMBER)
ENDPOINT_LABEL: efflux ratio at 1 hr, 1 μM
// print number alone

Reference set, count: 6
Ask | For the molecule "Cc1c(Cc2ccc(C(=O)NCC3(O)CC3)c(F)c2)cc2c(=O)n([C@H]3CCOC[C@@H]3O)cnc2c1C" , what efflux ratio at 1 hr, 1 μM is on record?
Reply | 15

Ask | Now consider Cc1c(Cc2ccc(-n3cccn3)cc2)cc2c(=O)n([C@H]3CCOC[C@@H]3O)cnc2c1C [Comparative Example 1, reference compound] and answer again.
Reply | 0.83

Ask | Then "COc1cc2ncn([C@H]3CCOC[C@@H]3O)c(=O)c2cc1Cc1ccc(-c2cnn(C)c2)nc1" ?
Reply | 19

Ask | Same thing, different molecule: "Cc1c(Cc2ccc(C(=O)NC3(C)COC3)cc2)cc2c(=O)n([C@H]3CCOC[C@@H]3O)cnc2c1C"
Reply | 24

Ask | // same read-out, input: "CNC(=O)c1ccc(Cc2cc3c(=O)n([C@H]4CCOC[C@@H]4O)cnc3c(C)c2C)cc1"
Reply | 24

Ask | Now the molecule "Cc1c(Cc2ccc(C(=O)NC34CC(C3)C4)cc2)cc2c(=O)n([C@H]3CCOC[C@@H]3O)cnc2c1C"
Reply | 5.9

Next:
Ask | Looking for the measured efflux ratio at 1 hr, 1 μM of "COc1cc2ncn([C@H]3CCOC[C@@H]3O)c(=O)c2cc1Cc1ccc(-c2cn(C)cn2)cc1" , can you help?
Reply | 32

Ask | And "Cc1c(Cc2ccc(C(=O)NCCCF)cc2)cc2c(=O)n([C@H]3CCOC[C@@H]3O)cnc2c1C" ?
Reply | 20

Ask | Here is the next molecule: "Cc1c(Cc2ccc(C(=O)NCC(=O)N(C)C)c(F)c2)cc2c(=O)n([C@H]3CCOC[C@@H]3O)cnc2c1C"
Reply | 19

Ask | Now try "Cc1c(Cc2ccc(C(=O)NCCC(F)(F)F)cc2)cc2c(=O)n([C@H]3CCOC[C@@H]3O)cnc2c1C" .
Reply | 8.3

Ask | What do you have for "Cc1c(Cc2ccc(C(=O)NC[C@H]3CCCO3)c(F)c2)cc2c(=O)n([C@H]3CCOC[C@@H]3O)cnc2c1C" ?
Reply | 8.6

Ask | Same read-out for "Cc1c(Cc2ccc(C(=O)NCC(=O)N(C)C)cc2)cc2c(=O)n([C@H]3CCOC[C@@H]3O)cnc2c1C" ?
Reply | 24

Ask | Then what about the molecule "Cc1c(Cc2ccc(-c3cnn(CC4CC4)c3)nc2)cc2c(=O)n([C@H]3CCOC[C@@H]3O)cnc2c1C" ?
Reply | 8

Ask | Repeat with "Cc1c(Cc2ccc(-c3cn(C)nn3)cc2)cc2c(=O)n([C@H]3CCOC[C@@H]3O)cnc2c1F"
Reply | 12

Ask | Item: "Cc1c(Cc2ccc(-c3cnn(CC(F)(F)F)c3)nc2)cc2c(=O)n([C@H]3CCOC[C@@H]3O)cnc2c1C"
Reply | 7.1

Ask | Param item: "Cc1c(Cc2ccc(-c3cn(C)nn3)cc2)cc2c(=O)n([C@H]3CCOC[C@@H]3O)cnc2c1C"
Reply | 4.8

Ask | Now try "Cc1c(Cc2ccc(C(=O)N3CC(C(F)F)C3)cc2)cc2c(=O)n([C@H]3CCOC[C@@H]3O)cnc2c1C" .
Reply | 18

Ask | Then what about the molecule "Cc1c(Cc2ccc(C(=O)NCCS(C)(=O)=O)c(F)c2)cc2c(=O)n([C@H]3CCOC[C@@H]3O)cnc2c1C" ?
Reply | 11
